These entries and their values trace back to patent US7658917.

target: natural β-amyloid peptide β-AP1-40 (human); test: cell-based or functional assay
Give % Inhibition of Plateau; nucleation assay; 100 mole % for every item shown.

Below, each entry is followed by its recorded % Inhibition of Plateau; nucleation assay; 100 mole % result.
# binder, result
records = [
    ("DAEFRHDSGYEVHHQAEDVGSNKGAIIGLMVGGVV [Aβ1-15, 21-40(Δ16-20)]", "~0%"),
    ("KLVFFAEDVGSNKGA [unmodified Aβ16-30]", "100%"),
]

Take each entry in turn and give its % Inhibition of Plateau; nucleation assay; 100 mole %.
1. DAEFRHDSGYEVHHQKLVFFSNKGAIIGLMVGGVV [Aβ1-20, 26-40(Δ21-25)]
2. SNKGAIIGLMVGGVV [unmodified Aβ26-40]
3. DAEFRHDSGYKLVFFAEDVGSNKGAIIGLMVGGVV [Aβ1-10, 16-40(Δ11-15)]

1. ~0%
2. ~0%
3. ~0%
